Test: Cell Viability - LYMP2-013 (AID 970);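 also: cells exposed to compound for 24 h at 37 °C; nearly all actives have a fitted effect of over 55% in size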; also: potency is read from the fitted curve at half-maximal effect
Conditions: LYMP2-013 lymphoblastoid cells viability; series mostly up to 92.2 µM
Source text: NIH Chemical Genomics Center [NCGC] NIH Molecular Libraries Screening Centers Network [MLSCN] National Institutes of Environmental Health Sciences [NIEHS] National Toxicology Program [NTP] We have developed a 1536-well cell-based assay for quantitative high throughput screening (qHTS) against a number of cell lines to determine in vitro cytotoxicity of small molecules. […] 8. Detection; Luminescence; Viewlux plate reader […]
Results filed as inconclusive are left out. Calls of active or inactive are those of the source. Calls follow the shape of the dose curve; as a rule, active = well fitted cell-killing curve with a large enough effect; inconclusive = small, poorly fitted or top-dose-only effect; inactive = flat fitted curve, though single readings scatter.
Measurement Label: Potency

Record excerpt, results attached:
Molecule	Potency
Nc1ccc(Br)cc1	inactive
NC(=S)Nc1ccccc1	inactive
COc1ccc(N)cc1	inactive
CCCCOC(=O)c1ccccc1C(=O)OCCCC	inactive

Specify measured Potency for ClC1=C(Cl)C2(Cl)C3C4CC(C5OC45)C3C1(Cl)C2(Cl)Cl (stereo unspecified) .
39.8 µM (active)

Specify measured Potency for C/C=C/c1ccc2c(c1)OCO2 .
inactive

* * *

Catalogue of max response values
experiment: qHTS Assay for Lipid Storage Modulators (AID 1519); details: Drosophila S3 cells, BODIPY lipid droplet/cell ratio, laser cytometry; measured here: cell count channel max response; cells loaded with oleic acid
Inconclusive results are not listed.
Give your result in % as a bare value.

Specify measured max response for C/C=C(/C)C(=O)OC1CC[C@]2(C)C3CCC4[C@]5(O)CC(O)[C@]6(O)C(CN7CC(C)CCC7[C@]6(C)O)[C@]5(O)C[C@@]42O[C@]13O (stereo not given in full) .
6.5

Specify measured max response for Cc1[nH]c2ccccc2c1CN(C)C .
9.14

Specify measured max response for O=c1cccc2n1CC1CNCC2C1 (stereo not given) .
7.65

Specify measured max response for O=C(Oc1ccccc1)N1CCC2(CC1)CN(C(c1ccccc1)c1ccccc1)C2 .
-3.18

Specify measured max response for CN1[C@@H]2CC(OC(=O)[C@H](CO)c3ccccc3)C[C@@H]1[C@H]1O[C@H]12 (stereo not given in full) .
-8.42

* * *

biological target: Glucocorticoid receptor (Homo sapiens) (UniProt P04150); test: GR-GFP Redistribution (AID 450); settings: U2OS GR-GFP nuclear translocation, laser cytometry, 2 h; also: potency is read from the fitted curve at half-maximal effect
Sequence (P04150 whole entry, looked up): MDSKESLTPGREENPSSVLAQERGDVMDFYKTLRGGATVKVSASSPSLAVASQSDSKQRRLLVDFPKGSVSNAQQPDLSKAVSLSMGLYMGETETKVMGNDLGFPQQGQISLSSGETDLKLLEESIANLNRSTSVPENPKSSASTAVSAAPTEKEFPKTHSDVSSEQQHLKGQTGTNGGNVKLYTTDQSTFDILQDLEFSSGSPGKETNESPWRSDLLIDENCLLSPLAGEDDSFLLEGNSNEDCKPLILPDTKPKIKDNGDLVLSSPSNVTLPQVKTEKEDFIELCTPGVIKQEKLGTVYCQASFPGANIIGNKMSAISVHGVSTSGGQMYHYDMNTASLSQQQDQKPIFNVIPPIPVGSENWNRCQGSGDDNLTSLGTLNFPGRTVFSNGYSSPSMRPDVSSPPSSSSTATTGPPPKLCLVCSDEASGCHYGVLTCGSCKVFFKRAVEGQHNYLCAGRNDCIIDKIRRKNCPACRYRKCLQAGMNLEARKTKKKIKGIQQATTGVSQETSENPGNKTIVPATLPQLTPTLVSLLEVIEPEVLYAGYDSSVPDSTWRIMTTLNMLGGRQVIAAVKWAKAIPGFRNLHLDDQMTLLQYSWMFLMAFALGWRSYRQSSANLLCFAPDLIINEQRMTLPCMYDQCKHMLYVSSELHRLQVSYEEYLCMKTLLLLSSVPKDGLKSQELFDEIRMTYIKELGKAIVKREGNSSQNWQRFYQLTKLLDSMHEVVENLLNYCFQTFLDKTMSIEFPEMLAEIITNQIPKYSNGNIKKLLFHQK
Calls of active or inactive are those of the source.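 How the source made its calls: active means compounds whose dose series gives a full or clear partial fitted curve of increased nuclear translocation; inconclusive means weak partial curve or effect only at the top dose; inactive means no dose-dependent translocation response.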
Catalogue of Potency values

Chemical String	Target Under Test	Assay Value
CCc1c(C(=O)OC)ncc2[nH]c3cc(OC)c(OC)cc3c12	Glucocorticoid receptor (Homo sapiens) (UniProt P04150)	> 46 µM (inactive)
CN1[C@@H](C[C@@H](O)c2ccccc2)CCC[C@@H]1C[C@H](O)c1ccccc1	Glucocorticoid receptor (Homo sapiens) (UniProt P04150)	> 20.6 µM (inactive)
CC[C@]1(c2cccc(O)c2)CCCCN(C)C1	Glucocorticoid receptor (Homo sapiens) (UniProt P04150)	> 20.6 µM (inactive)
C[C@@]12CC[C@H]3[C@@H](CC[C@]4(O)C[C@H](O)CC[C@@]34C=O)[C@]1(O)CC[C@@H]2C1=CC(=O)OC1	Glucocorticoid receptor (Homo sapiens) (UniProt P04150)	> 20.6 µM (inactive)
O=C(OC1CCN(CCCl)CC1)C(c1ccccc1)c1ccccc1	Glucocorticoid receptor (Homo sapiens) (UniProt P04150)	> 46 µM (inactive)
O=C1NC(=S)NC(=O)C1=Cc1cccc2cc3ccccc3cc12	Glucocorticoid receptor (Homo sapiens) (UniProt P04150)	> 46 µM (inactive)
CN1[C@@H]2CCC[C@H]1CC(=O)C2	Glucocorticoid receptor (Homo sapiens) (UniProt P04150)	> 20.6 µM (inactive)
COP(=O)(OC)[C@@H](O)C(Cl)(Cl)Cl	Glucocorticoid receptor (Homo sapiens) (UniProt P04150)	> 20.6 µM (inactive)

Lab note: next compound to report on.
Specify measured Potency for CCN(CC)c1ccc(N=Cc2c(O)n(-c3cc(OC)ccc3OC)c(=O)[nH]c2=O)cc1 .
> 20.6 µM (inactive)

Values compiled from PubChem BioAssay (NCATS).
